Assign clearance to each entry below.
- Assay text: Pharmacokinetic experiment in mouse
- Measurement conditions: plasma, iv, 10 mg/kg
Kindly provide the numeric value in mL/min/kg only, without the unit symbol.

What value of measured clearance is listed for O=C(OCc1ccccc1)N1CCC(F)(CNC2CC2c2ccccc2)CC1 (stereo not shown) [Example A1] ? 11.3

What value of measured clearance is listed for O=C(OCC1CCN(Cc2ccccc2)CC1)N1CCC(F)(CN[C@@H]2C[C@H]2c2ccccc2)CC1 [(1R,2S)-A90] ? 34.4

What value of measured clearance is listed for O=C(OCC1CCN(Cc2ccccc2)CC1)N1CCC(F)(CN[C@@H]2C[C@H]2c2ccccc2)CC1 (relative stereo) [Example A90] ? 60.4

What value of measured clearance is listed for O=C(OCC1CCNCC1)N1CCC(F)(CN[C@@H]2C[C@H]2c2ccccc2)CC1 (relative stereo) [Example A43] ? 187
